# SYSTEM TESTED: PD-L1 (human PD-L1 protein of the ELISA of Example 16) (human, UniProt Q9NZQ7 19-238, limits assumed)
# Sequence (Q9NZQ7 19-238 limits assumed): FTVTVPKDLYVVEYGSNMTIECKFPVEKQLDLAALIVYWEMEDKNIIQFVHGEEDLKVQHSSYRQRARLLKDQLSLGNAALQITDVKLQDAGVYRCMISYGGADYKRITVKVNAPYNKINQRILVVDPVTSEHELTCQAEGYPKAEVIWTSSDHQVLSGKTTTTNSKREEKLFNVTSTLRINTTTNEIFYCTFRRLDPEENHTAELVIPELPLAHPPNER
# ASSAY PROTOCOL: ELISA; affinity relative to original antibody h_Nb1 VHH (SEQ ID NO.21)
REPORTED METRIC: Increased relative affinity (relative)

# BINDER, REPORTED METRIC, NUMERIC RESULT
rows = [
    ("h_Nb1_C103K (VHH, also called 100) VHH: DVQLQESGGGLVQPGGSLRLSCAASGFTFSSYAMSWVRQAPGKGLEWVSDINSGGDNTDYADSVKGRFTISRDNAKNTLYLQMNSLKPEDTAVYYCARGPKLKFSSWGQGTQVTVSS", "Increased relative affinity", 3.31),
    ("h_Nb1_A61K (VHH, also called 94) VHH: DVQLQESGGGLVQPGGSLRLSCAASGFTFSSYAMSWVRQAPGKGLEWVSDINSGGDNTDYKDSVKGRFTISRDNAKNTLYLQMNSLKPEDTAVYYCARGPKLCFSSWGQGTQVTVSS", "Increased relative affinity", 4.12),
]
